Source of measurements: ChEMBL document CHEMBL4406886

Reported pIC50 values follow for various compounds
# Test system: HUVEC
# ASSAY NAME: Antiproliferative activity against human HUVEC cells expressing VEGFR2 assessed as cell growth inhibition measured after 48 hrs by MTT assay
# Type: functional, cell-based
pIC50: −log10 of the molar value.
MEASURED ATTRIBUTE: pIC50

# CHEMICAL STRUCTURE, NUMERIC READOUT
measured = [
    ("O=C(Nc1ccc(Nc2ccc([N+](=O)[O-])c3ncnc(O)c23)cc1)c1ccccc1Cl", 4.58),
    ("O=C(Nc1ccc(Nc2ccc([N+](=O)[O-])c3ncnc(O)c23)cc1)c1ccc(Cl)cc1", 5.80),
    ("Cc1cccc(C(=O)Nc2ccc(Nc3ccc([N+](=O)[O-])c4ncnc(O)c34)cc2)c1", 4.33),
    ("COc1ccccc1C(=O)Nc1cccc(Nc2ccc([N+](=O)[O-])c3ncnc(O)c23)c1", 4.09),
    ("COc1ccccc1C(=O)Nc1ccc(Nc2ccc([N+](=O)[O-])c3ncnc(O)c23)cc1", 4.44),
    ("O=C(Nc1cccc(Nc2ccc([N+](=O)[O-])c3ncnc(O)c23)c1)c1ccccc1", 4.10),
    ("O=C(Nc1cccc(Nc2ccc([N+](=O)[O-])c3ncnc(O)c23)c1)c1ccccc1F", 4.15),
    ("Cc1ccccc1C(=O)Nc1ccc(Nc2ccc([N+](=O)[O-])c3ncnc(O)c23)cc1", 4.43),
    ("O=C(Nc1cccc(Nc2ccc([N+](=O)[O-])c3ncnc(O)c23)c1)c1cccc(Cl)c1", 4.06),
    ("O=C(Nc1ccc(Nc2ccc([N+](=O)[O-])c3ncnc(O)c23)cc1)c1cccc(Cl)c1", 4.44),
    ("Cc1cccc(C(=O)Nc2cccc(Nc3ccc([N+](=O)[O-])c4ncnc(O)c34)c2)c1", 4.03),
    ("O=C(Nc1cccc(Nc2ccc([N+](=O)[O-])c3ncnc(O)c23)c1)c1ccc(Cl)cc1", 4.13),
    ("CNC(=O)c1cc(Oc2ccc(NC(=O)Nc3ccc(Cl)c(C(F)(F)F)c3)cc2)ccn1", 5.39),
    ("O=C(Nc1ccc(Nc2ccc([N+](=O)[O-])c3ncnc(O)c23)cc1)c1ccccc1F", 4.62),
    ("Cc1ccc(C(=O)Nc2cccc(Nc3ccc([N+](=O)[O-])c4ncnc(O)c34)c2)cc1", 4.09),
    ("O=C(Nc1ccc(Nc2ccc([N+](=O)[O-])c3ncnc(O)c23)cc1)c1ccccc1", 5.24),
    ("O=C(Nc1ccc(Nc2ccc([N+](=O)[O-])c3ncnc(O)c23)cc1)c1ccc(F)cc1", 6.30),
    ("O=C(Nc1ccc(Nc2ccc([N+](=O)[O-])c3ncnc(O)c23)cc1)Nc1cc(C(F)(F)F)ccc1Cl", 5.68),
    ("Cc1ccc(C(=O)Nc2ccc(Nc3ccc([N+](=O)[O-])c4ncnc(O)c34)cc2)cc1", 4.84),
    ("O=C(Nc1cccc(Nc2ccc([N+](=O)[O-])c3ncnc(O)c23)c1)c1ccc(F)cc1", 4.20),
    ("O=C(Nc1cccc(Nc2ccc([N+](=O)[O-])c3ncnc(O)c23)c1)c1ccccc1Cl", 4.13),
    ("Cc1ccccc1C(=O)Nc1cccc(Nc2ccc([N+](=O)[O-])c3ncnc(O)c23)c1", 4.05),
    ("O=C(Nc1ccc(Nc2ccc([N+](=O)[O-])c3ncnc(O)c23)cc1)c1cccc(F)c1", 4.41),
    ("O=C(Nc1cccc(Nc2ccc([N+](=O)[O-])c3ncnc(O)c23)c1)c1cccc(F)c1", 4.13),
    ("Cc1ccc(C(=O)Nc2ccc(CN3CCN(C)CC3)c(C(F)(F)F)c2)cc1C#Cc1cnc2cccnn12", 6.30),
    ("COc1cccc(C(=O)Nc2ccc(Nc3ccc([N+](=O)[O-])c4ncnc(O)c34)cc2)c1", 4.24),
]
